For each record, write down the corresponding MIC.
# Tested on: Escherichia coli
# Protocol details: In vitro antibacterial activity against Escherichia coli UB1005 (nalidixic acid-resistant strain)
# Assay type: functional
Numbers only, in µg/mL.

{"columns": ["Compound", "MIC, µg/mL"],
 "data": [
  ["O=C([O-])C1=C(COC(=O)N2CCN(c3cc4c(cc3F)c(=O)c(C(=O)O)cn4C3CC3)CC2)SC2CC(=O)N12.[Na+] (stereo not given)", 2]
]}

Here are 3 compounds. What values of MIC were reported for them?
1. C[C@@H](O)[C@H]1C(=O)N2C(C(=O)[O-])=C(COC(=O)c3cn(CCF)c4c(F)c(N5CCN(C)CC5)c(F)cc4c3=O)S[C@H]12.[Na+]
2. CN1CCN(c2c(F)cc3c(=O)c(C(=O)O)cn(CCF)c3c2F)CC1
3. C[C@@H](O)[C@H]1C(=O)N2C(C(=O)[O-])=C(COC(=O)N3CCN(c4cc5c(cc4F)c(=O)c(C(=O)O)cn5C4CC4)CC3)S[C@H]12.[Na+]

Response given:
1: 2; 2: 0.5; 3: 4

Challenge: Return reported MIC; argument: C[C@@H](O)[C@H]1C(=O)N2C(C(=O)[O-])=C(COC(=O)c3cn(CCF)c4c(F)c(N5CCN(C)CC5)c(F)cc4c3=O)C[C@H]12.[Na+]
Response given: 1
